pIC50: −log10 of the molar value.
Below are pIC50 values recorded for human BACE1 (Homo sapiens, UniProt P56817).

Q. Fill in: pIC50 of CN1C(=O)C(c2cccc(-c3cccnc3F)c2)(c2cc(CN3CCCC3)n(CCF)c2)N=C1N (stereo not shown) is ___
A. < 6.00

Q. Can you check `CCCn1cc([C@]2(c3cccc(-c4cccnc4F)c3)N=C(N)N(C)C2=O)cc1C(=O)CC` next?
A. 7.00 to 8.00

Q. What do you get for COC(=O)c1cc(C2(c3ccc(F)c(-c4cncnc4)c3)N=C(N)N(C)C2=O)cn1CCF (stereo not shown) ?
A. 7.00 to 8.00

Q. Query CN1C(=O)C(c2ccsc2)(c2cccc(OCC3CCCCC3)c2)N=C1N (stereo not shown) next
A. < 6.00
